// provenance: ChEMBL document CHEMBL1201862

- Test system: A549
- method-summary: NCI tumour cell line growth inhibition, 48 h
Activity calls are given as the source filed them. Rule as the data show it: active = GI50 up to about 1.1 µM and inactive = higher.
Respond only with the outcome that fits, drawn from 1 for active, 0 for inactive

Task item: Recorded test call requested for O=C1C(CN2CCCC2)CCC1CN1CCCC1 (stereo unspecified)
Reply: 0

Task item: Recorded test call requested for CC(=O)C(CN1CCOCC1)C(c1ccccc1)c1c(O)c2ccccc2oc1=O (stereo unspecified)
Reply: 0

Task item: Recorded test call requested for CC(C)(/N=N/C(C)(C)C1=NCCN1)C1=NCCN1
Reply: 0

Task item: Recorded test call requested for C=C(C)[C@@H](O)[C@H](O)C[C@H](C)C1CC[C@]2(C)C1=CC[C@@H]1[C@@]3(C)CC[C@@H](OC(C)=O)C(C)(C)[C@@H]3C[C@@H](OC3OC(COC(C)=O)C(O)C(O)C3O)[C@]12C (stereo partly specified)
Reply: 0

Task item: Recorded test call requested for CNC(=O)NCCN1N=C(C)/C(=C\c2ccccc2)CC1=O
Reply: 0

Task item: Recorded test call requested for CC(=O)Nc1ccc(C(=O)N2N=C(C)/C(=C/c3cccc([N+](=O)[O-])c3)C2=O)cc1
Reply: 0

Task item: Recorded test call requested for COc1ccc2c(c1)c1c3c(ccc4ncn2c43)N(CCN(C)C)CCN=1
Reply: 1

Task item: Recorded test call requested for CCCCN(c1ccccc1)c1ncnc2c1cnn2C
Reply: 0

Task item: Recorded test call requested for O=c1cc(NNc2ccc3ccccc3c2)[nH]c(=S)[nH]1
Reply: 0

Task item: Recorded test call requested for COc1cc(C(C[N+](=O)[O-])SC(C)=O)ccc1OCc1ccccc1 (stereo unspecified)
Reply: 0

Task item: Recorded test call requested for CC(C)(C)OC(=O)N1CC(C)(C)N2C(=O)C3(CCCO3)C12 (stereo unspecified)
Reply: 0

Task item: Recorded test call requested for CCCC(=O)Nc1cc([N+](=O)[O-])c([N+](=O)[O-])cc1OC
Reply: 0

Task item: Recorded test call requested for CCOP(=O)(OCC)OC1c2[nH]cc(C(=O)OCc3ccccc3)c2-c2cc(C(=O)OC)[nH]c2C1OC (stereo unspecified)
Reply: 0

Task item: Recorded test call requested for CCN1CC2(C)CCC(OC)C34C5CC6CCC(O)(C5C(=O)O6)C(C(O)C23)C14 (stereo unspecified)
Reply: 0

Task item: Recorded test call requested for O=C1CC2Sc3ccccc3N=C2N1c1ccc(Cl)cc1Cl (stereo unspecified)
Reply: 0

Task item: Recorded test call requested for O=C(O)CSSCC(=O)O
Reply: 0

Task item: Recorded test call requested for CCc1cc(Cc2cc(Cl)c(NC(=O)C(=O)C3NC(=O)NC3=O)c(CC)c2)cc(Cl)c1NC(=O)C(=O)C1NC(=O)NC1=O (stereo unspecified)
Reply: 0

Task item: Recorded test call requested for CC1=CC2CCC1(C)C/C2=C(/C)OC=O (stereo unspecified)
Reply: 0

Task item: Recorded test call requested for CNc1ccc(-c2nc3cc(C)ccc3o2)cc1
Reply: 0

Task item: Recorded test call requested for COc1ccc(CC(=O)N2CCC3(C)CC(=O)CC=C23)cc1OC (stereo unspecified)
Reply: 0

Task item: Recorded test call requested for O=c1c2cc(S(=O)(=O)O)ccc2nc(COc2ccc(Oc3ccc(Cl)cc3Cl)cc2)n1C(=S)Nc1ccc(Cl)cc1
Reply: 0

* * *

- Test system: SF-295
- method-summary: NCI tumour cell line growth inhibition, 48 h
Active and inactive are the calls of the source. Rule as the data show it: active = GI50 up to about 1.1 µM and inactive = higher.
Respond only with the outcome that fits, drawn from active, inactive

Task item: Recorded test call requested for CC1(C)[C@@H]2C[C@H]1C(Cc1ccc(C[C@H]3c4cc(-c5ccccn5)ncc4[C@H]4C[C@@H]3C4(C)C)cc1)c1cc(-c3ccccn3)ncc12 (some centres not stated)
Reply: inactive

Task item: Recorded test call requested for COC[C@H]1C(=O)NCC(=O)N2N=CCC[C@H]2C(=O)N(O)[C@H](C)C(=O)O[C@@H](C(C)C)[C@H](NC(=O)[C@@](C)(O)[C@]2(O)CC[C@@H](CC(C)C)[C@H](C)O2)C(=O)N2NCCC[C@@H]2C(=O)N1O
Reply: active

Task item: Recorded test call requested for NC(Cc1ccc(O)cn1)C(=O)O (configuration not stated)
Reply: inactive

Task item: Recorded test call requested for NC(=O)N/N=C(\CC1OC(=O)c2ccccc21)c1ccc([N+](=O)[O-])cc1 (configuration not stated)
Reply: inactive

Task item: Recorded test call requested for CC(O)CC(=O)CO[C@H]1[C@H](O)[C@@H](O)[C@@H](O)[C@@H]2NC(=O)c3c(cc4c(c3O)OCO4)[C@H]21 (some centres not stated)
Reply: active

Task item: Recorded test call requested for COC(=O)CC1N/C(=N\C#N)N(CCc2c[nH]c3ccccc23)C1=O (configuration not stated)
Reply: inactive

Task item: Recorded test call requested for O=C1C2[C@@H](C(=O)N1c1ccc(Br)cc1)C13C(=CC2([N+](=O)[O-])[C@@H]2C(=O)N(c4ccc(Br)cc4)C(=O)[C@@H]21)c1ccccc1N3c1ccccc1 (some centres not stated)
Reply: inactive

Task item: Recorded test call requested for COC(=O)[C@@H]1C(=O)O[C@@H](c2ccc(OC)c(OC)c2OC)[C@@H]1C(=O)OC.COC(=O)[C@H]1C(=O)O[C@@H](c2ccc(OC)c(OC)c2OC)[C@@H]1C(=O)OC
Reply: inactive

Task item: Recorded test call requested for CC(C)C(/C=C/c1ccc(Cl)cc1)=N\NC(=S)NN
Reply: inactive

Task item: Recorded test call requested for NS(=O)(=O)c1nnc(NS(=O)(=O)c2ccc(Cl)cc2)s1
Reply: inactive

Task item: Recorded test call requested for COc1ccc(/C=C/C(=O)C(C)C)cc1
Reply: inactive

Task item: Recorded test call requested for C1=CC=C2NCCC/N=C3/C=CC=CC=C3NCCC/N=C\2C=C1
Reply: inactive

Task item: Recorded test call requested for COC(=O)[C@@]12C(=O)C(C)C(=O)[C@]1(C)C(C)=C[C@H]1[C@]3(C=O)CC[C@H](OC(C)=O)C(C)(C)[C@H]3CC[C@@]12C (some centres not stated)
Reply: inactive

Task item: Recorded test call requested for CC(=O)NC(CCCCN(Cc1ccccc1)C(=O)NCCCl)C(=O)NCc1ccccc1 (configuration not stated)
Reply: inactive

Task item: Recorded test call requested for Cc1nc(C(N)=S)sc1C(=O)CC(=O)C(=O)Nc1c(C(C)C)cccc1C(C)C
Reply: inactive

Task item: Recorded test call requested for CCS[C@H]1NC(=O)C1[C@H](C)O[Si](C)(C)C(C)(C)C (some centres not stated)
Reply: inactive

Task item: Recorded test call requested for COC(=O)[C@@H]1C=CCN1S(=O)(=O)c1ccc(C)cc1
Reply: inactive
